Cited source: PubChem BioAssay (NCI)

Test: NCI Yeast Anticancer Drug Screen. Data for the sgs1 mgt1 strain (AID 161)
Conditions: S. cerevisiae sgs1 mgt1 strain, at 5.0 µM (retest, dose inferred, filed as 0.5), stronger effect = higher value
The panel holds about 79,000 compounds, 15% with a hit somewhere; the sample as a whole holds those more often.
Parameter threshold = 10%. Response is T when growth inhibition meets or exceeds it, else F.

Completed entries (count: 2):
CCC[CH2][Sn]([CH2]CCC)([O]N(C)C(=O)c1ccc(Br)cc1)[O]N(C)C(=O)c1ccc(Br)cc1 : T
NC(=S)C(=S)N=Cc1c(N)[nH]n(-c2ccccc2)c1=O : F

Ask: API: above_or_equal(metric=growth inhibition, cutoff=10%) for item NC(=S)C1CCC(C2CCCCC2)CC1 (stereo not given)
Result: T

Ask: And the next one, CC12CCC3C(CCC4CC(O)CCC43C)C1CC1C2=NOC1O (stereo not given) ?
Result: F

Ask: And the next one, OCC(O)Cc1c(Cl)c(Cl)c(Oc2c(Cl)c(Cl)c(CC(O)CO)c(Cl)c2Cl)c(Cl)c1Cl (stereo not given) ?
Result: T
